Catalogue of normalised cell viability values
System: NCI-H1944;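 also: CTB read-out in 384-well plates, triplicate wells, NPI normalised per plate against 1 µM phenylarsine oxide (0) and 0.1% DMSO (1) controls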
Assay: normalised cell viability (NPI; 0 = phenylarsine oxide control, 1 = DMSO control) (fraction of DMSO control); NCI-H1944 is a non-small cell lung cancer line; higher = more viable cells (less compound toxicity)
Details: glucocorticoid arm: vehicle; compound 5 µM; 6 days
Counter-ions that a name gives are not always drawn. The full ranking holds about 1,900 compounds; the median of “normalised cell viability (NPI; 0 = phenylarsine oxide control, 1 = DMSO control)” is about 1, and the lowest 2% start at about 0.039. This is one part of a sample in which the lowest values are shown more often than they occur.
Reply with the value as a number alone.

CC1C2Cc3ccc(O)cc3C1(C)CCN2CC1CC1 (single isomer, unassigned; (+)) [(+)-Cyclazocine] :: 0.999
NC(Cn1oc(=O)[nH]c1=O)C(=O)O (single isomer, unassigned; (+)) [(+)-Quisqualic acid] :: 1
C[C@@H](N)Cc1cnc[nH]1 [Histamine, R(-)-alpha-methyl-, dihydrochloride] :: 0.996
C=C(C)[C@H]1Cc2c(ccc3c2O[C@@H]2COc4cc(OC)c(OC)cc4[C@@H]2C3=O)O1 :: 0.115
C[C@H]1O[C@@H](C[N+](C)(C)C)CS1 :: 0.986
CC(N)c1cccc(Cl)c1Cl (racemic) [(±)-2,3-Dichloro-alpha-methylbenzylamine hydrochloride] :: 1
CN1CCCCC1Cn1cc(C(=O)c2cc([N+](=O)[O-])ccc2I)c2ccccc21 (stereo not drawn) :: 1

Moving on to the next compound.
Problem: # normalised cell viability lookup, item `Clc1ccc(N2CC3CCC(C2)N3)nn1`
Solution: 0.984
